B1: TSPAN10 (parent)
chain: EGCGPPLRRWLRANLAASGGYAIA

- Variants of: B1
- method_notes: protein stability index of a GFP-peptide fusion (GPS, HEK-293T) (PSI 1-6); higher = more stable;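 note: lentivirally expressed fusions sorted by FACS into six bins by GFP to DsRed ratio, PSI derived from sequencing read proportions per bin multiplied by bin number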
- setup_conditions: c terminus: a fixed tail appended
So basically: protein stability index at 2 or higher? That is 1.0. Lower than 2? That is 0.0.

[
  {
    "seq": "DGCGPPLRRWLRANLAASGGYAIA [E1D]",
    "group": 1.0
  },
  {
    "seq": "EGCGPPLKRWLRANLAASGGYAIA [R8K]",
    "group": 0.0
  },
  {
    "seq": "EGSGPPLRRWLRANLAASGGYAIA [C3S]",
    "group": 1.0
  }
]

Hello, I need to know if EGCYPPLRRWLRANLAASGGYAIA [G4Y] has measured protein stability index not below 2. Thanks!
0.0
